B1: TPR 5TU (parent)
chain: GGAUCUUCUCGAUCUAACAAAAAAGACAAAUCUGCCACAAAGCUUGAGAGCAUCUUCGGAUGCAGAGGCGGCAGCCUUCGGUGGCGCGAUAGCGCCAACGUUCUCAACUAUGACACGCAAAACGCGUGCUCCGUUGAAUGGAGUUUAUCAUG

Variants of: B1
TEST_SUMMARY: polymerase ribozyme fitness, log enrichment relative to wild type (log ratio); higher = more active; in vitro selection for triplet polymerase activity
Fewer inactive variants are shown than the library holds.
ASSAY_READOUT: polymerase ribozyme fitness (log ratio)

MUTATION: U31G U145A
RECORDED_VALUE: 0.652
//
MUTATION: U15G G92U A147U
RECORDED_VALUE: 0.901
//
MUTATION: A41C C87G
RECORDED_VALUE: ≤ -4.2
//
MUTATION: A29C C95A G117U G126U G141C G143C
RECORDED_VALUE: ≤ -4.2
//
MUTATION: A16C C51A C54G C57A C96A G117U U135G
RECORDED_VALUE: ≤ -4.2
//
MUTATION: U61A A73G
RECORDED_VALUE: -1.42
//
MUTATION: C79A C103G
RECORDED_VALUE: ≤ -4.2
//
MUTATION: A60G U134A
RECORDED_VALUE: -1.8
//
MUTATION: A37U A66G C149U G152C
RECORDED_VALUE: ≤ -4.2
//
MUTATION: A28U A37U A73G G92U A106G C118G
RECORDED_VALUE: ≤ -4.2
//
MUTATION: U13G A21U C32G A73U U78A C87A C118A
RECORDED_VALUE: ≤ -4.2

These measurements were taken from the RNAGym collection of RNA variant scans (doi:10.1073/pnas.2313332121).
